Values compiled from patent US8008291B2.

# tested target: hMC3R (Homo sapiens, UniProt P41968)
# Sequence (P41968 whole entry): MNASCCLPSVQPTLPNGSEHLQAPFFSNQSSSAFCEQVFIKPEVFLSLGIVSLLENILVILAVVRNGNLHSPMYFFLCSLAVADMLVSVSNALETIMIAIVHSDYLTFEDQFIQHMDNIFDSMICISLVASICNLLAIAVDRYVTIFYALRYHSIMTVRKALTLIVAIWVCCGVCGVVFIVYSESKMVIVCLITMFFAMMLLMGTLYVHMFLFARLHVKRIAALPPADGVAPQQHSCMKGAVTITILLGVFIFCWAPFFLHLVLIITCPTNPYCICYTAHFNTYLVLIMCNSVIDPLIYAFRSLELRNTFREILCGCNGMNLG
pIC50: −log10 of the molar value.

compound | pIC50
O=C(/C=C/c1ccc(Cl)cc1)NC[C@@H]1CCN(CC(c2ccccc2)c2ccccc2)C(=O)[C@H](CCN2CCCCC2)N1 [Compound 33] | 5.82

---

# tested target: human MC5R (hMC5R) (Homo sapiens, UniProt P33032)
# Construct: purchased Perkin Elmer RBXMC5M400UA
# Sequence (P33032 whole entry): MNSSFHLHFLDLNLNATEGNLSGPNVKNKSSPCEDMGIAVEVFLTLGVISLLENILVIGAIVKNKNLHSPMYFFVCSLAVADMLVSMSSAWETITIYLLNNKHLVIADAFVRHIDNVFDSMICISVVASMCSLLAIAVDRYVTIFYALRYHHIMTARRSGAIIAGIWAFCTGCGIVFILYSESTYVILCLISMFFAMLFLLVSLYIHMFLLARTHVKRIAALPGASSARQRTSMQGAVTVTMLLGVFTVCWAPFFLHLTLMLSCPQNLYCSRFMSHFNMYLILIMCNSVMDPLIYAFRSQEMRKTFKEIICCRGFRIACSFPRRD
# experiment description: Human MC5R radioligand binding assay (membranes, [125I] NDP-MSH displacement)
# study conditions: hMC5R binding; tested as trifluoroacetate or hydrochloride salts, or free bases; read-out: MC5R radioligand IC50
pIC50: −log10 of the molar value.
The reader will find reported pIC50 values listed item by item below.
readout name: pIC50

molecule | val
O=C(CCc1ccc(Cl)cc1)NC[C@@H]1CCN(CC(c2ccccc2)c2ccccc2)C(=O)[C@H](CCN2CCCCC2)N1 | > 7.00
N=C(N)NCCC[C@@H]1N[C@H](CNC(=O)[C@@H]2Cc3ccccc3CN2)CCN(CC(c2ccccc2)c2ccccc2)C1=O | > 5.00
N=C(N)NCCC[C@@H]1N[C@H](CNC(=O)c2ccc3ccccc3c2)CCN(C[C@@H](NC(=O)c2ccccc2)c2ccccc2)C1=O | > 6.00
C#Cc1cc(C#C)cc(CN2CC[C@@H](CNC(=O)c3ccc4ccccc4c3)N[C@@H](CCCN)C2=O)c1 | > 6.00
CC(C)[C@H](CN1CC[C@@H](CNC(=O)c2ccc3ccccc3c2)N[C@@H](CCN2CCCCC2)C1=O)c1ccccc1 | > 7.00
N=C(N)NCCC[C@@H]1N[C@H](CNC(=O)/C(F)=C/c2ccccc2)CCN(CC(c2ccccc2)c2ccccc2)C1=O | > 6.00

---

# tested target: human MC5R (hMC5R) (Homo sapiens, UniProt P33032)
# Construct: purchased Perkin Elmer RBXMC5M400UA
# experiment description: Human MC5R radioligand binding assay (membranes, [125I] NDP-MSH displacement)
# study conditions: hMC5R binding; tested as trifluoroacetate or hydrochloride salts, or free bases; read-out: MC5R radioligand IC50
Entries and their IC50

compound | IC50
Cc1ccc(S(=O)(=O)NCC[C@@H]2N[C@H](CNC(=O)c3ccc(Cl)c(Cl)c3)CCN(Cc3ccc(Cl)cc3Cl)C2=O)cc1 | < 10000 nM
N=C(N)NCCC[C@@H]1N[C@H](CNC(=O)C2CC2c2ccccc2)CCN(CC(c2ccccc2)c2ccccc2)C1=O (stereo partly drawn) | < 1000 nM
C=C(C)[C@@H](CC)CN1CC[C@@H](CNC(=O)c2ccc3cc(Cl)ccc3c2)N[C@@H](CCN2CCCCC2)C1=O | < 100 nM
CC(=O)N[C@@H](Cc1cnc[nH]1)C(=O)N[C@@H](Cc1ccc2ccccc2c1)[C@@H]1CCN(CC(c2ccccc2)c2ccccc2)C(=O)[C@H](CCCNC(=N)N)N1 | < 1000 nM
N=C(N)NCCC[C@@H]1N[C@H](CNC(=O)c2ccc3ccccc3c2)CCN(C[C@H](NC(=O)c2ccccc2)c2ccccc2)C1=O | < 10000 nM
NCCC[C@@H]1N[C@H](CNC(=O)c2ccc3ccccc3c2)CCN(Cc2ccccc2Cl)C1=O | < 10000 nM
CC1CC(C)CC(CN2CC[C@@H](CNC(=O)c3ccc4ccccc4c3)N[C@@H](CCCNC(=N)N)C2=O)C1 (stereo partly drawn) | < 100 nM
Cc1ccc(/C=C/C(=O)NC[C@@H]2CCN(CC(c3ccccc3)c3ccccc3)C(=O)[C@H](CCN3CCCCC3)N2)c(C)c1 | < 100 nM
O=C(NC[C@@H]1CCN(CC(c2ccccc2)c2ccccc2)C(=O)[C@H](CN2CCCCC2)N1)c1ccc2ccccc2c1 | < 100 nM
CC(C)NCCCC[C@@H]1N[C@H](CNC(=O)c2ccc3ccccc3c2)CCN(CC(c2ccccc2)c2ccccc2)C1=O | < 100 nM
CC[C@H](CN1CC[C@@H](CNC(=O)c2ccc3ccccc3c2)N[C@@H](CCCN)C1=O)c1ccccc1 | < 1000 nM
CCN(CC)CC[C@@H]1N[C@H](CNC(=O)c2ccc3ccccc3c2)CCN(CC(c2ccccc2)c2ccccc2)C1=O | < 100 nM
CC(C)NCC[C@@H]1N[C@H](CNC(=O)c2ccc3cc(Cl)ccc3c2)CCN(Cc2cc(Cl)cc(Cl)c2)C1=O | < 10 nM
C=C(C)C(CC)CN1CC[C@@H](CNC(=O)c2ccc(Cl)c(Cl)c2)N[C@@H](CCN2CCCCC2)C1=O (stereo partly drawn) | < 1000 nM
C=C(C)C(CC)CN1CC[C@@H](CNC(=O)c2ccc3cc(Cl)ccc3c2)N[C@@H](CCN)C1=O (stereo partly drawn) | < 10 nM
CC[C@H](CN1CC[C@@H](CNC(=O)c2ccc3cc(Cl)ccc3c2)N[C@@H](CCNC(C)C)C1=O)c1ccccc1 | < 10 nM
CC[C@H](CN1CC[C@@H](CNC(=O)c2ccc(Cl)c(Cl)c2)N[C@@H](CCN2CC(C)CC(C)C2)C1=O)c1ccccc1 (stereo partly drawn) | < 100 nM
CCC(CN1CC[C@@H](CNC(=O)c2ccc3ccccc3c2)N[C@@H](CCCN)C1=O)c1ccccc1 (stereo partly drawn) | < 1000 nM
O=C(NC[C@@H]1CCN(Cc2ccc(Cl)cc2Cl)C(=O)[C@H](CCN2CCCCC2)N1)c1ccc(Cl)c(Cl)c1 | < 1000 nM
CC[C@@H](CN1CC[C@@H](CNC(=O)c2ccc3ccccc3c2)N[C@@H](CCCN)C1=O)c1ccccc1 | < 10000 nM
CC(CN1CC[C@@H](CNC(=O)c2ccc3ccccc3c2)N[C@@H](CCN)C1=O)c1ccc(Cl)cc1 (stereo partly drawn) | < 10000 nM

---

Listed here: items and their measured IC50.
# tested target: human MC5R (hMC5R) (Homo sapiens)
# Construct: purchased Perkin Elmer RBXMC5M400UA
# experiment description: Human MC5R radioligand binding assay (membranes, [125I] NDP-MSH displacement)
# study conditions: hMC5R binding; tested as trifluoroacetate or hydrochloride salts, or free bases; read-out: MC5R radioligand IC50

compound | IC50
CC[C@H](CN1CC[C@@H](CNC(=O)/C=C/c2ccc(Cl)cc2)N[C@@H](CCNC(C)C)C1=O)c1ccccc1 [Compound 408] | < 100 nM
O=C(O)c1ccc2cc(C(=O)NC[C@@H]3CCN(CC(c4ccccc4)c4ccccc4)C(=O)[C@H](CCN4CCCCC4)N3)ccc2c1 [Compound 473] | < 1000 nM
Cc1ccc(/C=C/C(=O)NC[C@@H]2CCN(CC(c3ccccc3)c3ccccc3)C(=O)[C@H](CCN3CCCCC3)N2)cc1 [Compound 285] | < 100 nM
NCCC[C@@H]1N[C@H](CNC(=O)c2ccc3ccccc3c2)CCN(Cc2cccc(Cl)c2Cl)C1=O [Compound 318] | < 10000 nM
CC[C@H](CN1CC[C@@H](CNC(=O)c2ccc3ccccc3c2OC)N[C@@H](CCN2CCCCC2)C1=O)c1ccccc1 [Compound 538] | < 100 nM
CC1CC(C)CC(CN2CC[C@@H](CNC(=O)c3ccc(Cl)c(Cl)c3)N[C@@H](CCNC(C)C)C2=O)C1 (stereo partly shown) [Compound 387] | < 1000 nM
CC(C)NCC[C@@H]1N[C@H](CNC(=O)/C=C/c2ccc(Cl)cc2)CCN(CC(c2ccccc2)c2ccccc2)C1=O [Compound 381] | < 100 nM

---

The reader will find reported IC50 values listed item by item below.
# tested target: human MC5R (hMC5R) (Homo sapiens)
# Construct: purchased Perkin Elmer RBXMC5M400UA
# experiment description: Human MC5R radioligand binding assay (membranes, [125I] NDP-MSH displacement)
# study conditions: hMC5R binding; tested as trifluoroacetate or hydrochloride salts, or free bases; read-out: MC5R radioligand IC50

compound | IC50
NCCC[C@@H]1N[C@H](CNC(=O)COc2ccc(F)cc2)CCN(CC(c2ccccc2)c2ccccc2)C1=O [Compound 233] | < 1 µM
O=C(NC[C@@H]1CCN(CC(c2ccccc2)c2ccccc2)C(=O)[C@H](CCCNC2CCCC2)N1)c1ccc2ccccc2c1 [Compound 246] | < 0.1 µM
CC[C@H](CN1CC[C@@H](CNC(=O)c2ccc(Cl)c(Cl)c2)N[C@@H](CCN2C(=O)CCC2=O)C1=O)c1ccccc1 [Compound 489] | < 10 µM
CC[C@@H](CN1CC[C@@H](CNC(=O)c2ccc3cc(Cl)ccc3c2)N[C@@H](CCN2CCCCC2)C1=O)c1ccsc1 [Compound 510] | < 0.1 µM
CC[C@@H](CN1CC[C@@H](CNC(=O)c2ccc3cc(Cl)ccc3c2)N[C@@H](CCN2CCCCC2)C1=O)c1ccccc1 [Compound 526] | < 0.01 µM
NCCC[C@@H]1N[C@H](CNC(=O)c2ccc3ccccc3c2)CCN(Cc2ccc(Cl)cc2Cl)C1=O [Compound 319] | < 1 µM
O=C(/C=C/c1ccc(Cl)cc1)NC[C@@H]1CCN(CC(c2ccccc2)c2ccccc2)C(=O)[C@H](CNC(=O)C2CCCCC2)N1 [Compound 402] | < 10 µM
